Origin of the recorded values: ChEMBL document CHEMBL1145401

Measurement record for Dihydrofolate reductase (Mycobacterium avium, UniProt O30463); quantity recorded: IC50.
Answers are plain numbers, in µM.

Here are 3 compounds together with their reported answers.
>>> obs_value("Cc1c(Sc2ccc(Cl)c(Cl)c2)[nH]c2nc(N)nc(N)c12")
19
>>> obs_value("CCc1c(Sc2ccc(Br)cc2)[nH]c2nc(N)nc(N)c12")
7.4
>>> obs_value("CCc1c(Sc2c(Cl)cccc2Cl)[nH]c2nc(N)nc(N)c12")
12

In: Please report the recorded IC50 for CCc1c(Sc2cccc(Cl)c2)[nH]c2nc(N)nc(N)c12 .
Out: 0.42

---

Test system UniProtKB P16184, log10 of IC50 listed for each of the compounds.
Sequence (P16184 whole entry): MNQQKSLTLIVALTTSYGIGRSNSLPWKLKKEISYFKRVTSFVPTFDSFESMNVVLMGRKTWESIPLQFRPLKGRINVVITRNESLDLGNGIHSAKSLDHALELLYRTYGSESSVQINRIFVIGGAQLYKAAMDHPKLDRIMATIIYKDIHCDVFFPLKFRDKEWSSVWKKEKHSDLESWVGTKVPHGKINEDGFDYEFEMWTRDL
log10 IC50, µM

Known log10 of IC50 results, listed for orientation:
>>> obs_value("CCc1c(Sc2c(C)cccc2C)[nH]c2nc(N)nc(N)c12")
1.48
>>> obs_value("CCc1c(Sc2ccc(Cl)cc2)[nH]c2nc(N)nc(N)c12")
1.08
>>> obs_value("CCc1c(Sc2cccc(Cl)c2)[nH]c2nc(N)nc(N)c12")
0.60
>>> obs_value("CCc1c(Sc2ccc([N+](=O)[O-])cc2)[nH]c2nc(N)nc(N)c12")
0.94
>>> obs_value("CCc1c(Sc2cccc(OC)c2)[nH]c2nc(N)nc(N)c12")
1.45
>>> obs_value("CCc1c(Sc2ccc3ccccc3c2)[nH]c2nc(N)nc(N)c12")
1.14
>>> obs_value("CCc1c(Sc2cccc3ccccc23)[nH]c2nc(N)nc(N)c12")
1.26
>>> obs_value("CCc1c(Sc2ccc(Br)cc2)[nH]c2nc(N)nc(N)c12")
1.42

Record log10 of IC50 for all entries; do not skip any.
1. CCc1c(Sc2c(Cl)cccc2Cl)[nH]c2nc(N)nc(N)c12
2. CCc1c(Sc2ccc(OC)cc2)[nH]c2nc(N)nc(N)c12
3. CCc1c(Sc2cccc3cccnc23)[nH]c2nc(N)nc(N)c12

Out:
1. 1.31
2. 1.72
3. 0.98

In: Entry CCc1c(Sc2ccc(Cl)cc2Cl)[nH]c2nc(N)nc(N)c12 has what log10 of IC50?
Out: 0.86

---

Assign IC50 to each entry below.
Molecular target: Dihydrofolate reductase (Mycobacterium avium, UniProt O30463)
Sequence (O30463 whole entry): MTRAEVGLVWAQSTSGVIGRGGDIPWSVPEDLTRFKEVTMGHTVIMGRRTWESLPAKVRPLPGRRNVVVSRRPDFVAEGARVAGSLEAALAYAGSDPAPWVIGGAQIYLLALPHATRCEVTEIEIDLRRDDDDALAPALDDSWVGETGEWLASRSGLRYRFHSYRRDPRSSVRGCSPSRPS
Answers are plain numbers, in µM.

# count of solved cases: 8
>>> obs_value("CCc1c(Sc2ccc3ccccc3c2)[nH]c2nc(N)nc(N)c12")
6.52
>>> obs_value("CCc1c(Sc2cccc3cccnc23)[nH]c2nc(N)nc(N)c12")
0.11
>>> obs_value("CCc1c(Sc2c(C)cccc2C)[nH]c2nc(N)nc(N)c12")
18.4
>>> obs_value("CCc1c(Sc2ccc(Cl)cc2)[nH]c2nc(N)nc(N)c12")
0.7
>>> obs_value("CCc1c(Sc2ccc(OC)cc2)[nH]c2nc(N)nc(N)c12")
3.07
>>> obs_value("CCc1c(Sc2cccc(OC)c2)[nH]c2nc(N)nc(N)c12")
0.77
>>> obs_value("CCc1c(Sc2cccc3ccccc23)[nH]c2nc(N)nc(N)c12")
19.8
>>> obs_value("Cc1c(Sc2ccc3ccccc3c2)[nH]c2nc(N)nc(N)c12")
0.7

Provide IC50 values for the following items, in order.
1. CCc1c(Sc2ccc(Cl)cc2Cl)[nH]c2nc(N)nc(N)c12
2. CCc1c(Sc2ccc([N+](=O)[O-])cc2)[nH]c2nc(N)nc(N)c12
3. COc1ccc(Sc2[nH]c3nc(N)nc(N)c3c2C)cc1

Out:
1: 0.35; 2: 0.37; 3: 0.69
